From: patent US12281162

- assayedTarget: T1, human G-protein-coupled receptor family C group 5 member D (GPRC5D) (human, UniProt Q9NZD1 1-345)
- T1 construct: whole, on cells; also called human GPRC5D protein
- T1 sequence (Q9NZD1 whole entry): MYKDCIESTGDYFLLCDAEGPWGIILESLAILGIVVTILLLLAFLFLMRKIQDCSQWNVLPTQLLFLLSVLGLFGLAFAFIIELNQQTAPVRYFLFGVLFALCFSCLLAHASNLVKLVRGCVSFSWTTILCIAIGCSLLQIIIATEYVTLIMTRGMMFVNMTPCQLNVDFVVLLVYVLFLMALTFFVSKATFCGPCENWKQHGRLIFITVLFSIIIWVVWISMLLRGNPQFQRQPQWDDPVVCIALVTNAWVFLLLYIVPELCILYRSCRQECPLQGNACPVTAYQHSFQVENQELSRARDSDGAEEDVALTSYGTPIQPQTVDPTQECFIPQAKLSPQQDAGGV
- testName: FACS, CHO-K1/human GPRC5D
assayEndpoint: Span
# respond with the number and nothing more

Worked cases, answers included:
6-H3L3 (antibody, V domains shown, humanized 6G10D9, VH v3 x VL v3) VH: QVQLVQSGAEVAKPGASVKVSCKASGYTFTTYTMHWVKQAPGQGLEWLGYINPSSGYTNYNQKFKDRVTMTADTSTSTVYMELSSLRSEDTAVYYCASLRSRGYFDYWGQGTLVTVSS VL: DIQMTQSPSFLSTSVGDRVTITCKASQNVGTAVVWYQQKPGKSPKLLIYSASNRYTGVPSRFSGSGSGTEFTLTISSMQPEDFATFFCQQYSSYPYTFGQGTKLEIK: 134000
37-H1L1 (antibody, V domains shown, humanized 37B9C4, VH v1 x VL v1; also called 37B9C4 (H1L1)) VH: EVQLVESGGGLVQPGGSLRLSCAASGFTFSDYWMNWVRQAPGKGLEWVAEIRLKSNNYATHYAESVKGRFTISRDNAKNSLYLQMNSLRAEDTAVYYCARPLLWFRRYYAMDYWGQGTLVTVSS VL: DIQMTQSPSSLSASVGDRVTITCSASQGISNYLNWYQQKPGKAPKLLIYYTSSLHSGVPSRFSGSGSGTDFTLTISSLQPEDFATYYCQQYSKLPFTFGQGTKLEIK: 102000

Here's the next entry for you.
Identify measured Span associated with 34-XI (antibody, V domains shown, also called 34D3H1 (chimeric)) VH: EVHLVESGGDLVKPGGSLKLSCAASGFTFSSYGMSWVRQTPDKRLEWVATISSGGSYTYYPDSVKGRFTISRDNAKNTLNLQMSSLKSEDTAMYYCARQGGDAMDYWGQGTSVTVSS VL: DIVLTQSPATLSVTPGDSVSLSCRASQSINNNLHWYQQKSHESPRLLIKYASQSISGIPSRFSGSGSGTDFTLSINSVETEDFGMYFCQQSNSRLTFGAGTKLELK 117000
